Kindly supply the reported IC50 values for the records listed here.
- SYSTEM_NAME: P2Y1 receptor (Homo sapiens, UniProt P47900)
- Construct: expressed in transfected cells
- Sequence (P47900 whole entry): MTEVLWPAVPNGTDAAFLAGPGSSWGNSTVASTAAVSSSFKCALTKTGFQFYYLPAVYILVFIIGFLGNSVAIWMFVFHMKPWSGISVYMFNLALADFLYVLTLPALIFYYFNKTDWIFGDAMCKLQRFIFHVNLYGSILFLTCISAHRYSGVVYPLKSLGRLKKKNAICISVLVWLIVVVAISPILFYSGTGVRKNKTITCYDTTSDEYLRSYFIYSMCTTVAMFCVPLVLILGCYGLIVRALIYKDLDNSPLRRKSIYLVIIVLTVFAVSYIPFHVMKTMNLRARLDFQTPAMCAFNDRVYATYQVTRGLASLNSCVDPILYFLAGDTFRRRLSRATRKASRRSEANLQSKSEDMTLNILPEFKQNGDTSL
- EXPERIMENT_DESCRIPTION: Cell based HTRF assay measuring IP1 accumulation; antagonism of the P2Y1 agonist MRS2365
- STATED_CONDITIONS: rounded to nearest whole number; read-out: IC50 IP1
- Procedure: IC50 values were determined using a cell based assay in stably transfected cells overexpressing the P2Y1 receptor. […] For the assay, IP1 accumulation was quantified using the IPOne kit according to manufacturer's instructions. In short, a standard curve was prepared for IP1 quantification, and cells lysed using kit lysis buffer. […] Plates were analysed on a BMG Pherastar plate reader, and IP1 signal generated in cells interpolated from the standard curve.
A number alone suffices; assume nM.

Ask: Return IC50 for the following compound: O=C(Nc1ccc(OC(F)(F)F)cc1)Nc1cccnc1Oc1cccc(-c2ccccc2)c1
Reply: 827

Ask: Return IC50 for the following compound: CC(C)(C)c1ccccc1Oc1ncccc1NC(=O)NCCCc1ccccc1
Reply: 640

Ask: Return IC50 for the following compound: O=C(Nc1ccc(OC(F)(F)F)cc1)Nc1cccnc1Oc1ccccc1C1(C(F)(F)F)CC1
Reply: 58

Ask: Return IC50 for the following compound: CC(C)(C)c1ccccc1Oc1ncncc1NC(=O)Nc1ccc(OC(F)(F)F)cc1
Reply: 236

Ask: Return IC50 for the following compound: CC(C)(C)c1ccc(O)c(Oc2ncccc2NC(=O)Nc2ccc(OC(F)(F)F)cc2)c1
Reply: 948

Ask: Return IC50 for the following compound: CC(C)c1ccc(C(F)F)cc1Oc1ncccc1NC(=O)Nc1ccc(OC(F)(F)F)cc1
Reply: 179

Ask: Return IC50 for the following compound: Cc1cnc(Oc2cccc(N3CCCCC3)c2C)c(NC(=O)Nc2ccc(OC(F)(F)F)cc2)c1
Reply: 2810

Ask: Return IC50 for the following compound: O=C(Nc1ccc(OC(F)(F)F)cc1)Nc1cccnc1Oc1cccc(Br)c1
Reply: 1320
